# reported plant injury at 125 g/ha; entries follow
- Tested on: wheat
- Procedure summary: Test B postemergence herbicide test
- Assay type: in vivo, Triticum aestivum
- Conditions used: Triticum aestivum, post-emergence, 336 h, postemergence, 125 g ai/ha; visual rating, scale 0 (no effect) to 100 (complete control); read-out: Wheat plant response rating

Smiles notation: CCn1nc(C(C)(C)C)cc1C(=O)Nc1cccc(C(=O)OCCF)c1
plant injury at 125 g/ha, %: 20
//
Smiles notation: CCN(CC)C(=O)c1cncc(NC(=O)c2cc(C(C)(C)C)nn2CC)c1
plant injury at 125 g/ha, %: 0
//
Smiles notation: CCNC(=O)c1cccc(NC(=O)c2nn(C(C)(C)C)cc2Br)c1
plant injury at 125 g/ha, %: 0
//
Smiles notation: CCOC(=O)c1cccc(NC(=O)c2cc(C(C)(C)C)nn2CC)c1
plant injury at 125 g/ha, %: 20
